test-method-notes: qHTS assay to identify small molecule agonists of the hypoxia (HIF-1) signaling pathway - cell viability counter screen (AID 1224844); note: nearly all actives have a fitted effect of over 50% in size
measurement-parameters: HRE-bla ME-180 viability, CellTiter-Glo luminescence, 17 h; series mostly up to 76.8 µM
Records with an inconclusive call do not appear. Calls of active or inactive are those of the source. Calls come from the whole dose curve.
API: response.call in active, inactive

| compound | discrete-label |
| --- | --- |
| C/C(=N\[Si](C)(C)C)O[Si](C)(C)C | inactive |
| C=CC(C)(C)O | inactive |
| O=C(CCCCCCCCc1cccnc1)N1CCC(C=C(c2ccccc2)c2ccccc2)CC1 | active |

Task: Could you check what this test reported for Cc1ccc(C2OC[C@@H]3OC(c4ccc(C)cc4)O[C@H]([C@H](O)CO)[C@@H]3O2)cc1 (some centres not stated) ?
Result: inactive

Task: Could you do the same for `C=C1CC[C@H]2O[C@]2(C)CC[C@@H]2[C@@H]1CC2(C)C` , please?
Result: inactive

Task: Could you do the same for `O=c1[nH]cccc1O` , please?
Result: inactive

Task: Could you do the same for `CN1CC[C@H](c2c(O)cc(O)c3c(=O)cc(-c4ccccc4Cl)oc23)[C@H](O)C1` , please?
Result: inactive

Task: Could you do the same for CC(Cc1ccc(O)c(O)c1)C(C)Cc1ccc(O)c(O)c1 (configuration not stated) , please?
Result: inactive

Task: Could you do the same for `COc1c(Br)cc(Br)c(C)c1Br` , please?
Result: inactive

Task: Could you do the same for `Nc1ccc(Oc2cccc(Oc3ccc(N)cc3)c2)cc1` , please?
Result: inactive

Task: Could you do the same for `O=C1OC2(c3ccccc31)c1ccc(O)c(Br)c1Oc1c2ccc(O)c1Br` , please?
Result: inactive

Task: Could you do the same for CC(CC(C)(C)C)CC(C)(C)CC(C)(C)C (configuration not stated) , please?
Result: inactive

---

test-method-notes: qHTS assay to identify small molecule antagonists of the androgen receptor (AR) signaling pathway using the MDA cell line in the presence of 0.5 nM R1881 - cell viability counter screen (AID 1259242); note: % is set by controls: 0 for no effect and ±100 for the full control effect; nearly all actives have a fitted effect of over 45% in size
measurement-parameters: MDA-kb2 viability, CellTiter-Fluor protease fluorescence, 16 h; series mostly up to 92.4 µM
Inconclusive results are not listed. Active and inactive are the calls of the source. Calls come from the whole dose curve; as a rule, active = well fitted cell-killing curve with a large enough effect in the repeat runs; inconclusive = weak or mixed curves, or effect the other way; inactive = flat fitted curve, though single readings scatter.
API: response.call in active, inactive

Task: Could you check what this test reported for C=C(C)C1CCC(C)CC1O (stereo not given) ?
Result: inactive

Task: Could you do the same for `CCN(CC)c1ccc(C=O)cc1` , please?
Result: inactive

Task: Could you do the same for `CC(C)=CCC[C@H](C)CC=O` , please?
Result: inactive

Task: Could you do the same for `COc1cc(OC)nc(NC(=O)NS(=O)(=O)Nc2ccccc2C(=O)N(C)C)n1` , please?
Result: inactive

Task: Could you do the same for `Oc1ccc2c(c1)CCC2` , please?
Result: inactive

---

experimental-target: Estrogen receptor (Homo sapiens) (UniProt P03372)
Sequence (P03372 whole entry, looked up): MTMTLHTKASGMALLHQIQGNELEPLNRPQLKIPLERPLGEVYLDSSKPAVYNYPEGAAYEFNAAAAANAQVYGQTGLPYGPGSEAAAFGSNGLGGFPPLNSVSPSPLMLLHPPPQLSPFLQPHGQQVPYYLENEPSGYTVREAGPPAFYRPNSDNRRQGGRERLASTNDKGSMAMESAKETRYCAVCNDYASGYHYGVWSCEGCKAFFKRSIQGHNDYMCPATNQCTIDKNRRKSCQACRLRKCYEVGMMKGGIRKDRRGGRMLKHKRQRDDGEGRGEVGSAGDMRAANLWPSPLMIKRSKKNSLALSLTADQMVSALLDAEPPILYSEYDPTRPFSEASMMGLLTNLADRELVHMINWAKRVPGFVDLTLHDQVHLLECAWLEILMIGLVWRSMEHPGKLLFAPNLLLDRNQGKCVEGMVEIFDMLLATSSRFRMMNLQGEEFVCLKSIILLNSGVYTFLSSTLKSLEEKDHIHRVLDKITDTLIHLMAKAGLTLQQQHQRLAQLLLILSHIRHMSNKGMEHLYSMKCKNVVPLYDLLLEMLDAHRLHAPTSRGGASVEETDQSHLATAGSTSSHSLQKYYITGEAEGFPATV
test-method-notes: qHTS assay to identify small molecule antagonists of the estrogen receptor alpha (ER-alpha) signaling pathway (AID 743069)
measurement-parameters: HEK293 ER-alpha-UAS-bla, beta-lactamase ratio, antagonist mode; series mostly up to 69.4 µM
Calls of active or inactive are those of the source. Calls follow the shape of the dose curve; as a rule, active = well fitted curve in the direction sought with a large enough effect in the signal ratio in the repeat runs (not every such curve was filed as active); inconclusive = weak or mixed curves, or effect the other way; inactive = no such curve, though single readings can be large or run the other way; the % refers to the signal ratio. Residues, ends and D or L forms follow the SMILES beside them.
API: response.call in 1 (active), 0 (inactive)

Below are worked cases with known answers.
| compound | discrete-label |
| --- | --- |
| OCCCNc1ccccc1 | 0 |
| O=C(O)c1ccc(NC2OC[C@@H](O)[C@H](O)[C@H]2O)cc1 (stereo not given in full) | 0 |
| CCOC(=O)Cc1ccc(-c2ccccc2)cc1 | 0 |

Task: Could you check what this test reported for CC(C)[C@H](NC(=O)[C@H](CC(=O)O)NC(=O)[C@H](CCCCN)NC(=O)[C@@H](N)CCCN=C(N)N)C(=O)N[C@@H](Cc1ccc(O)cc1)C(=O)O (H-RKDVY-OH) ?
Result: 0

Task: Could you do the same for CC(Cc1ccc(O)c(O)c1)C(C)Cc1ccc(O)c(O)c1 (stereo not given) , please?
Result: 1

Task: Could you do the same for `CC1=C(/C=C/C(C)=C/C=C/C(C)=C/C=C/C=C(C)/C=C/C=C(C)/C=C/C2=C(C)CCCC2(C)C)C(C)(C)CCC1` , please?
Result: 0

Task: Could you do the same for COC(=O)C(CN)c1c[nH]c2ccc(OC)cc12 (stereo not given) , please?
Result: 0

Task: Could you do the same for NCC1CCC(C(=O)O)CC1 (stereo not given) , please?
Result: 0

Task: Could you do the same for `O=C(O)COc1ccc(C(=O)c2cccs2)c(Cl)c1Cl` , please?
Result: 0

Task: Could you do the same for `COc1ccc(/C=C/C(=O)Nc2ccccc2C(=O)O)cc1OC` , please?
Result: 0
